The values you see were collected from patent US8088920B2.

- System: THP-1 cells
- Protocol Notes: Cholesterol efflux assay
- Format: cell-based
- Condition Notes: Homo sapiens; THP-1 cells differentiated to macrophages, [3H]cholesterol loaded, efflux induced by 10 μg/ml Apolipoprotein AI, 6 hrs; percent stimulation over DMSO
Can you tell me pEC50 for the items I'm about to list?
Answers are plain numbers, as −log10 of the molar value.

Answered cases to consult:
CC(O)(CNC(=O)c1nc(-c2ccc(Cl)cc2)c(OCC2CC2)nc1C(F)(F)F)C1CC1 (stereo not drawn) [Example 3] = 6.14
O=C(N[C@@H]1CCCC[C@H]1O)c1nc(-c2ccc(Cl)cc2)c(OCC2CC2)nc1C(F)(F)F [Example 1] = 6.21

The value of pEC50 measured for the molecule CC(O)(CNC(=O)c1nc(-c2ccc(Cl)cc2)c(OCC(F)(F)F)nc1C(F)(F)F)C1CC1 (stereo not drawn) [Example 2] turned out to be 6.24
